meta.source: patent US4866038A

# Tested on: frog (Rana pipiens)
# Format: cell-based
Non-standard residues stand in square brackets, D forms with d. Residues, ends and D or L forms follow the SMILES beside them. Phg = N[C@H](C(=O)O)c1ccccc1; Nle = CCCC[C@H](N)C(=O)O
assay.endpoint: Relative Potency Frog
Give bare numbers.

[
  {
    "compound": "CCCC[C@H](NC(C)=O)C(=O)N[C@@H](CCC(=O)O)C(=O)N[C@@H](Cc1c[nH]cn1)C(=O)N[C@H](Cc1ccccc1)C(=O)N[C@@H](CCCNC(=N)N)C(=O)N[C@@H](Cc1c[nH]c2ccccc12)C(=O)NCC(=O)N[C@@H](CCCCN)C(N)=O (Ac-[Nle]EH[dF]RWGK-NH2)",
    "Relative Potency Frog": 0.012
  },
  {
    "compound": "CCCC[C@H](NC(C)=O)C(=O)N[C@@H](CCC(=O)O)C(=O)N[C@@H](Cc1c[nH]cn1)C(=O)N[C@H](Cc1ccccc1)C(=O)N[C@@H](CCCNC(=N)N)C(=O)N[C@@H](Cc1c[nH]c2ccccc12)C(=O)NCC(N)=O",
    "Relative Potency Frog": 0.02
  },
  {
    "compound": "CCCC[C@H](NC(C)=O)C(=O)N[C@@H](CCC(=O)O)C(=O)N[C@@H](Cc1c[nH]cn1)C(=O)N[C@H](Cc1ccccc1)C(=O)N[C@@H](CCCNC(=N)N)C(=O)N[C@@H](Cc1ccccc1)C(=O)NCC(=O)N[C@@H](CCCCN)C(N)=O (Ac-[Nle]EH[dF]RFGK-NH2)",
    "Relative Potency Frog": 0.017
  }
]

Dear reader, for each entry below, please note its Relative Potency Frog.
1. CCCC[C@H](NC(C)=O)C(=O)N[C@@H](CCC(=O)O)C(=O)N[C@H](Cc1c[nH]cn1)C(=O)N[C@H](Cc1ccccc1)C(=O)N[C@@H](CCCNC(=N)N)C(=O)N[C@@H](Cc1c[nH]c2ccccc12)C(=O)NCC(=O)N[C@@H](CCCCN)C(N)=O (Ac-[Nle]E[dH][dF]RWGK-NH2)
2. CCCC[C@H](NC(C)=O)C(=O)N[C@@H](CCC(=O)O)C(=O)N[C@@H](Cc1c[nH]cn1)C(=O)N[C@H](C(=O)N[C@@H](CCCNC(=N)N)C(=O)N[C@@H](Cc1c[nH]c2ccccc12)C(=O)NCC(=O)N[C@@H](CCCCN)C(N)=O)c1ccccc1 (Ac-[Nle]EH[Phg]RWGK-NH2)
3. CCCC[C@H](NC(C)=O)C(=O)N[C@@H](CCC(=O)O)C(=O)N[C@H](Cc1c[nH]cn1)C(=O)N[C@@H](Cc1ccccc1)C(=O)N[C@@H](CCCNC(=N)N)C(=O)N[C@@H](Cc1c[nH]c2ccccc12)C(=O)NCC(=O)N[C@@H](CCCCN)C(N)=O (Ac-[Nle]E[dH]FRWGK-NH2)

1: 0.0006; 2: 0.14; 3: 0.0014
